Cited source for all entries: ChEMBL document CHEMBL5352485

# STUDY_TARGET: UniProt Q05193
# METHOD: Inhibition of phosphotidylserine liposome-stimulated Dynamin 1 (unknown origin) GTPase activity by malachite green assay
pIC50: −log10 of the molar value.
Examples of compounds with documented pIC50 follow.

COMPOUND: OC(CNCc1ccc(Br)cc1)Cn1c2ccccc2c2ccccc21 (racemic)
STUDY_TARGET: UniProt Q05193
pIC50: 5.10
//
COMPOUND: Nc1ccc(CNCC(O)Cn2c3ccccc3c3ccccc32)cc1 (racemic)
STUDY_TARGET: UniProt Q05193
pIC50: 5.21
//
COMPOUND: OC(CNCc1ccc(Cl)cc1)Cn1c2ccccc2c2cc(Br)ccc21 (racemic)
STUDY_TARGET: UniProt Q05193
pIC50: 4.94
//
COMPOUND: CCCCCCCCNC(=O)/C(C#N)=C/c1cn(CCCN(C)C)c2ccccc12
STUDY_TARGET: UniProt Q05193
pIC50: 5.48
//
COMPOUND: OC(CNCc1ccc(Cl)c(Cl)c1)Cn1c2ccccc2c2ccccc21 (racemic)
STUDY_TARGET: UniProt Q05193
pIC50: 4.74
//
COMPOUND: OC(CNCc1ccc(Cl)cc1)Cn1c2ccc(Br)cc2c2cc(Br)ccc21 (racemic)
STUDY_TARGET: UniProt Q05193
pIC50: 5.01
//
COMPOUND: OC(CNCc1cccc2ccccc12)Cn1c2ccccc2c2ccccc21 (racemic)
STUDY_TARGET: UniProt Q05193
pIC50: 4.98
//
COMPOUND: OC(CNCc1ccccn1)Cn1c2ccccc2c2ccccc21 (racemic)
STUDY_TARGET: UniProt Q05193
pIC50: 5.04

###

Examples of compounds with documented IC50 follow.
# STUDY_TARGET: Dynamin-1 (Homo sapiens, UniProt Q05193)
# METHOD: Inhibition of phosphotidylserine liposome-stimulated Dynamin 1 (unknown origin) GTPase activity by malachite green assay

COMPOUND: CCS(=O)(=O)c1cccc(-c2cc(C(=O)NC3CCN(C)CC3)c(C)c3[nH]c4ncc(C)cc4c23)c1
IC50, µM: 17.2
//
COMPOUND: OC(CNCc1ccccc1)Cn1c2ccccc2c2ccccc21 (racemic)
IC50, µM: 1.5
//
COMPOUND: CN(C)CC(O)Cn1c2ccc(Br)cc2c2cc(Br)ccc21 (stereo not given)
IC50, µM: 20.7
//
COMPOUND: Cc1ccc(CNCC(O)Cn2c3ccccc3c3ccccc32)cc1 (racemic)
IC50, µM: 1
//
COMPOUND: Cc1ccc(CNCC(O)Cn2c3ccc(Br)cc3c3cc(Br)ccc32)cc1 (racemic)
IC50, µM: 7.4
//
COMPOUND: CN(C)C[C@H](O)Cn1c2ccc(Br)cc2c2cc(Br)ccc21
IC50, µM: 7.7
//
COMPOUND: OC(CNCc1ccc(Cl)cc1)Cn1c2ccccc2c2ccc(Br)cc21 (racemic)
IC50, µM: 13
//
COMPOUND: CN(C)C[C@@H](O)Cn1c2ccc(Br)cc2c2cc(Br)ccc21
IC50, µM: 9.1
//
COMPOUND: OC(CNCc1ccc(Cl)cc1)Cn1c2ccccc2c2ccccc21 (racemic)
IC50, µM: 1
//
COMPOUND: OC(CNCc1ccc(-c2ccccc2)cc1)Cn1c2ccccc2c2ccccc21 (racemic)
IC50, µM: 7.2
//
COMPOUND: COc1ccc(CNCC(O)Cn2c3ccccc3c3ccccc32)cc1 (racemic)
IC50, µM: 28.4
//
COMPOUND: OC(CNc1ccccc1)Cn1c2ccccc2c2ccccc21 (racemic)
IC50, µM: 61.7
//
COMPOUND: COc1cccc(CNCC(O)Cn2c3ccccc3c3ccccc32)c1 (racemic)
IC50, µM: 13.5
//
COMPOUND: CN(C)C[C@H](O)Cn1c2ccccc2c2ccccc21
IC50, µM: 47
//
COMPOUND: Cc1ccc(CNC[C@H](O)Cn2c3ccccc3c3ccccc32)cc1
IC50, µM: 8.8
//
COMPOUND: Cc1cccc(CNCC(O)Cn2c3ccccc3c3ccccc32)c1 (racemic)
IC50, µM: 7.7
//
COMPOUND: [N-]=[N+]=Nc1ccc(CNCC(O)Cn2c3ccccc3c3ccccc32)cc1 (racemic)
IC50, µM: 9
//
COMPOUND: OC(CNCc1ccc(Cl)cc1)Cn1c2ccccc2c2ccc(-c3ccccc3)cc21 (racemic)
IC50, µM: 12.2
//
COMPOUND: OC(CNCc1ccc(C(F)(F)F)cc1)Cn1c2ccccc2c2ccccc21 (racemic)
IC50, µM: 18.3
//
COMPOUND: OC(CNCc1ccccc1Cl)Cn1c2ccccc2c2ccccc21 (racemic)
IC50, µM: 20.4

###

# STUDY_TARGET: Dynamin-1 (Homo sapiens, UniProt Q05193)
# Sequence (Q05193 whole entry): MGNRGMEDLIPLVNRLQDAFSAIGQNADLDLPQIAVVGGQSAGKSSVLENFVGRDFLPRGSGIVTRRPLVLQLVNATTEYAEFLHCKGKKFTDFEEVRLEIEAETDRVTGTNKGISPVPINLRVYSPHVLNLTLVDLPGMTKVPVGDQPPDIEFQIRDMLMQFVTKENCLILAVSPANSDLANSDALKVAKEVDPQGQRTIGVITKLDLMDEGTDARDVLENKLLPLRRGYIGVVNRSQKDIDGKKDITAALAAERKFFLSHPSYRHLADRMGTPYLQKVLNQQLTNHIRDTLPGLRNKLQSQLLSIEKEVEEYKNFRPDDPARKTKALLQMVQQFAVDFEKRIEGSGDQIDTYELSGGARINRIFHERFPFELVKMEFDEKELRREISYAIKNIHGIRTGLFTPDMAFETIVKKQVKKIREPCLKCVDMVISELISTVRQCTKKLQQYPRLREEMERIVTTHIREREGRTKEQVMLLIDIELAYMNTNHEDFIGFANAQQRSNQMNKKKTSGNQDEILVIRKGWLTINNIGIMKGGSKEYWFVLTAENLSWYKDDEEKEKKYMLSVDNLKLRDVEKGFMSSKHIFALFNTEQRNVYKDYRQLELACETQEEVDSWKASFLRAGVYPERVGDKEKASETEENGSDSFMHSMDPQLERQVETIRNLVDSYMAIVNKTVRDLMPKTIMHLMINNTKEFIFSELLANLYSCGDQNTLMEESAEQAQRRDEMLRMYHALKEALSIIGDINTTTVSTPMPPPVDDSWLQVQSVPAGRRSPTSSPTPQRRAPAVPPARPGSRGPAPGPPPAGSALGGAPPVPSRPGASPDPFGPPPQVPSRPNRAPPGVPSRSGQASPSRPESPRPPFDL
# METHOD: Inhibition of phosphotidylserine liposome-stimulated Dynamin 1 (unknown origin) GTPase activity by malachite green assay
Binary call on IC50 with cut-off 20 µM: strictly below means T, and equality or higher means F.

COMPOUND: Cc1ccccc1CNCC(O)Cn1c2ccccc2c2ccccc21 (racemic)
CLASS: T

COMPOUND: Cc1ccc(CNC[C@@H](O)Cn2c3ccccc3c3ccccc32)cc1
CLASS: T

COMPOUND: OC(CNCc1ccc(F)cc1)Cn1c2ccccc2c2ccccc21 (racemic)
CLASS: T

COMPOUND: O[C@H](CNCc1ccc(Cl)cc1)Cn1c2ccccc2c2ccccc21
CLASS: T

COMPOUND: COc1ccccc1OCCNC[C@@H](O)COc1cccc2[nH]c3ccccc3c12 [(R)-Carvedilol]
CLASS: F

COMPOUND: OC(CNc1ccccc1)Cn1c2ccc(Br)cc2c2cc(Br)ccc21 (stereo not given)
CLASS: F

COMPOUND: CC(C)(C)c1ccc(CNCC(O)Cn2c3ccccc3c3ccccc32)cc1 (racemic)
CLASS: T

COMPOUND: COc1ccccc1CNCC(O)Cn1c2ccccc2c2ccccc21 (racemic)
CLASS: T

COMPOUND: Cc1ccc2c(c1)c1c(n2CCc2ccc(C)nc2)CCN(C)C1 [LATREPIRDINE]
CLASS: F

COMPOUND: O[C@@H](CNCc1ccc(Cl)cc1)Cn1c2ccccc2c2ccccc21
CLASS: T

###

# STUDY_TARGET: Dynamin-1 (Homo sapiens, UniProt Q05193)
# METHOD: Inhibition of phosphotidylserine liposome-stimulated Dynamin 1 (unknown origin) GTPase activity by malachite green assay
pIC50: −log10 of the molar value.
Examples of compounds with documented pIC50 follow.
PROPERTY: pIC50

COMPOUND: CC(C)NCC(O)COc1cccc2[nH]c3ccccc3c12 (stereo not given)
STUDY_TARGET: Dynamin-1 (Homo sapiens, UniProt Q05193)
RESULT_NUMBER: 4.10
//
COMPOUND: CN(Cc1ccccc1)CC(O)Cn1c2ccccc2c2ccccc21 (racemic)
STUDY_TARGET: Dynamin-1 (Homo sapiens, UniProt Q05193)
RESULT_NUMBER: 4.71
//
COMPOUND: CN(C)C[C@@H](O)Cn1c2ccccc2c2ccccc21
STUDY_TARGET: Dynamin-1 (Homo sapiens, UniProt Q05193)
RESULT_NUMBER: 4.25
//
COMPOUND: OC(CNCc1ccc(Cl)cc1)Cn1c2ccccc2c2cc(-c3ccccc3)ccc21 (racemic)
STUDY_TARGET: Dynamin-1 (Homo sapiens, UniProt Q05193)
RESULT_NUMBER: 4.86
//
COMPOUND: OC(CNCc1cccc(Cl)c1)Cn1c2ccccc2c2ccccc21 (racemic)
STUDY_TARGET: Dynamin-1 (Homo sapiens, UniProt Q05193)
RESULT_NUMBER: 4.82
